- Tested on: 958767-090-R-J1-PDC spheroid growth
- assay: Anticancer human tumor 958767-090-R-J1-PDC patient-derived head and neck squamous carcinoma cell line growth inhibition [IpAb]
- condition: second compound 10 µM; first compound 0.316 µM; hits give low values; spheroids with HUVEC and MSC
- Protocol: Combinatorial screen of targeted agents with ipatasertib and abemaciclib in multi-cell type tumor spheroids […] Compounds. […] If the clinical Cmax for an agent had not been determined, the highest concentration tested was 10 microM. NCI60 Cell Culture. […] The optimal seeding densities for each of the cell lines at each time point assessed were determined prior to performing the concentration response studies. […]
Simple rule here: viability, T/C less than 20% is 1, otherwise 0.

Prompt: Field: below-cutoff. Rule: recorded viability, T/C strictly less than 20%. Subject: Cn1ncc(Cl)c1-c1cc(C(=O)NC(CN)Cc2cccc(F)c2)sc1Cl (stereo not given) + CC(C)NCC(C(=O)N1CCN(c2ncnc3c2C(C)CC3O)CC1)c1ccc(Cl)cc1
Response: 0

***
Prompt: Field: below-cutoff. Rule: recorded viability, T/C strictly less than 20%. Subject: COc1c(OCCCN2CCOCC2)ccc2c3n(c(=NC(=O)c4cnc(N)nc4)nc12)CCN3 + CC(C)NCC(C(=O)N1CCN(c2ncnc3c2C(C)CC3O)CC1)c1ccc(Cl)cc1
Response: 1

Prompt: Field: below-cutoff. Rule: recorded viability, T/C strictly less than 20%. Subject: CC1(C)CCC(CN2CCN(c3ccc(C(=O)NS(=O)(=O)c4ccc(NCC5CCOCC5)c([N+](=O)[O-])c4)c(Oc4cnc5[nH]ccc5c4)c3)CC2)=C(c2ccc(Cl)cc2)C1 + CC(C)NCC(C(=O)N1CCN(c2ncnc3c2C(C)CC3O)CC1)c1ccc(Cl)cc1
Response: 0

Prompt: Field: below-cutoff. Rule: recorded viability, T/C strictly less than 20%. Subject: C=CCn1c(=O)c2cnc(Nc3ccc(N4CCN(C)CC4)cc3)nc2n1-c1cccc(C(C)(C)O)n1 + CC(C)NCC(C(=O)N1CCN(c2ncnc3c2C(C)CC3O)CC1)c1ccc(Cl)cc1
Response: 1

Prompt: Field: below-cutoff. Rule: recorded viability, T/C strictly less than 20%. Subject: CCCS(=O)(=O)Nc1ccc(F)c(C(=O)c2c[nH]c3ncc(-c4ccc(Cl)cc4)cc23)c1F + CC(C)NCC(C(=O)N1CCN(c2ncnc3c2C(C)CC3O)CC1)c1ccc(Cl)cc1
Response: 0

###

- System: 958767-090-R-J1-PDC spheroid growth
- assay: Anticancer human tumor 958767-090-R-J1-PDC cell line growth inhibition [IpAb];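 further: spheroids exposed to agents for 7 days; 100% = DMSO vehicle control wells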
- condition: second compound 0.0316 µM; first compound 1 µM; hits give low values; spheroids with HUVEC and MSC
measured_parameter: viability, T/C (%)
Supply the numeric figure in %, leaving out any unit text.

Some entries whose results are on file:
Prompt: I would be grateful if you could share the reported viability, T/C for COc1c(OCCCN2CCOCC2)ccc2c3n(c(=NC(=O)c4cnc(N)nc4)nc12)CCN3 + CCN1CCN(Cc2ccc(Nc3ncc(F)c(-c4cc(F)c5nc(C)n(C(C)C)c5c4)n3)nc2)CC1 .
Response: 5.05

Prompt: I would be grateful if you could share the reported viability, T/C for C=CC(=O)N1CCN(c2nc(=O)n(-c3c(C)ccnc3C(C)C)c3nc(-c4c(O)cccc4F)c(F)cc23)C(C)C1 (stereo not drawn) + CCN1CCN(Cc2ccc(Nc3ncc(F)c(-c4cc(F)c5nc(C)n(C(C)C)c5c4)n3)nc2)CC1 .
Response: 92.3

Query compound follows.
Prompt: I would be grateful if you could share the reported viability, T/C for Cn1ncc(Cl)c1-c1cc(C(=O)NC(CN)Cc2cccc(F)c2)sc1Cl (stereo not drawn) + CCN1CCN(Cc2ccc(Nc3ncc(F)c(-c4cc(F)c5nc(C)n(C(C)C)c5c4)n3)nc2)CC1 .
Response: 38.3

###

- Tested on: 958767-090-R-J1-PDC spheroid growth
- assay: Anticancer human tumor 958767-090-R-J1-PDC cell line growth inhibition [IpAb];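 further: spheroids exposed to agents for 7 days; 100% = DMSO vehicle control wells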
- condition: second compound 0.1 µM; first compound 0.000316 µM; hits give low values; spheroids with HUVEC and MSC
measured_parameter: viability, T/C

Prompt: I would be grateful if you could share the reported viability, T/C for Cn1ncnc1[C@H]1c2n[nH]c(=O)c3cc(F)cc(c23)N[C@@H]1c1ccc(F)cc1 + CCN1CCN(Cc2ccc(Nc3ncc(F)c(-c4cc(F)c5nc(C)n(C(C)C)c5c4)n3)nc2)CC1 .
Response: 68.8%

Prompt: I would be grateful if you could share the reported viability, T/C for CC(C)n1nc(-c2ccc3oc(N)nc3c2)c2c(N)ncnc21 + CC(C)NCC(C(=O)N1CCN(c2ncnc3c2C(C)CC3O)CC1)c1ccc(Cl)cc1 .
Response: 78.4%

Prompt: I would be grateful if you could share the reported viability, T/C for Cn1ncnc1[C@H]1c2n[nH]c(=O)c3cc(F)cc(c23)N[C@@H]1c1ccc(F)cc1 + CC(C)NCC(C(=O)N1CCN(c2ncnc3c2C(C)CC3O)CC1)c1ccc(Cl)cc1 .
Response: 91.5%

***
Prompt: I would be grateful if you could share the reported viability, T/C for CC(C)n1nc(-c2ccc3oc(N)nc3c2)c2c(N)ncnc21 + CCN1CCN(Cc2ccc(Nc3ncc(F)c(-c4cc(F)c5nc(C)n(C(C)C)c5c4)n3)nc2)CC1 .
Response: 68.7%

###

- System: 958767-090-R-J1-PDC spheroid growth
- assay: Anticancer human tumor 958767-090-R-J1-PDC cell line growth inhibition [IpAb]; active means viability on the fitted dose curve at most 10% of control; inactive means the rest;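 further: spheroids exposed to agents for 7 days; 100% = DMSO vehicle control wells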
- condition: second compound 0.1 µM; first compound 0.316 µM; spheroids with HUVEC and MSC
Could you please pick one outcome from this set? active, inactive

Prompt: Dear colleague, could you share the recorded outcome for CC1(C)CCC(CN2CCN(c3ccc(C(=O)NS(=O)(=O)c4ccc(NCC5CCOCC5)c([N+](=O)[O-])c4)c(Oc4cnc5[nH]ccc5c4)c3)CC2)=C(c2ccc(Cl)cc2)C1 + CCN1CCN(Cc2ccc(Nc3ncc(F)c(-c4cc(F)c5nc(C)n(C(C)C)c5c4)n3)nc2)CC1 when you have a moment?
Response: inactive

***
Prompt: Dear colleague, could you share the recorded outcome for Cc1nc(NC(=O)N2CCCC2C(N)=O)sc1-c1ccnc(C(C)(C)C(F)(F)F)c1 (stereo unspecified) + CCN1CCN(Cc2ccc(Nc3ncc(F)c(-c4cc(F)c5nc(C)n(C(C)C)c5c4)n3)nc2)CC1 when you have a moment?
Response: inactive

Prompt: Dear colleague, could you share the recorded outcome for CC1(C)CCC(CN2CCN(c3ccc(C(=O)NS(=O)(=O)c4ccc(NCC5CCOCC5)c([N+](=O)[O-])c4)c(Oc4cnc5[nH]ccc5c4)c3)CC2)=C(c2ccc(Cl)cc2)C1 + CC(C)NCC(C(=O)N1CCN(c2ncnc3c2C(C)CC3O)CC1)c1ccc(Cl)cc1 when you have a moment?
Response: inactive

Prompt: Dear colleague, could you share the recorded outcome for CCCS(=O)(=O)Nc1ccc(F)c(C(=O)c2c[nH]c3ncc(-c4ccc(Cl)cc4)cc23)c1F + CC(C)NCC(C(=O)N1CCN(c2ncnc3c2C(C)CC3O)CC1)c1ccc(Cl)cc1 when you have a moment?
Response: inactive

Prompt: Dear colleague, could you share the recorded outcome for C=CCn1c(=O)c2cnc(Nc3ccc(N4CCN(C)CC4)cc3)nc2n1-c1cccc(C(C)(C)O)n1 + CC(C)NCC(C(=O)N1CCN(c2ncnc3c2C(C)CC3O)CC1)c1ccc(Cl)cc1 when you have a moment?
Response: inactive

Prompt: Dear colleague, could you share the recorded outcome for C=CC(=O)N1CCN(c2nc(=O)n(-c3c(C)ccnc3C(C)C)c3nc(-c4c(O)cccc4F)c(F)cc23)C(C)C1 (stereo unspecified) + CCN1CCN(Cc2ccc(Nc3ncc(F)c(-c4cc(F)c5nc(C)n(C(C)C)c5c4)n3)nc2)CC1 when you have a moment?
Response: inactive

Prompt: Dear colleague, could you share the recorded outcome for C=CC(=O)N1CCN(c2nc(=O)n(-c3c(C)ccnc3C(C)C)c3nc(-c4c(O)cccc4F)c(F)cc23)C(C)C1 (stereo unspecified) + CC(C)NCC(C(=O)N1CCN(c2ncnc3c2C(C)CC3O)CC1)c1ccc(Cl)cc1 when you have a moment?
Response: inactive

Prompt: Dear colleague, could you share the recorded outcome for COc1c(OCCCN2CCOCC2)ccc2c3n(c(=NC(=O)c4cnc(N)nc4)nc12)CCN3 + CCN1CCN(Cc2ccc(Nc3ncc(F)c(-c4cc(F)c5nc(C)n(C(C)C)c5c4)n3)nc2)CC1 when you have a moment?
Response: active

###

- System: 958767-090-R-J1-PDC spheroid growth
- assay: Anticancer human tumor 958767-090-R-J1-PDC cell line growth inhibition [IpAb];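 further: spheroids exposed to agents for 7 days; 100% = DMSO vehicle control wells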
- condition: second compound 10 µM; first compound 10 µM; hits give low values; spheroids with HUVEC and MSC
# maps each entry to its viability, T/C
Supply the numeric figure in %, leaving out any unit text.

Prompt: I would be grateful if you could share the reported viability, T/C for C=CCn1c(=O)c2cnc(Nc3ccc(N4CCN(C)CC4)cc3)nc2n1-c1cccc(C(C)(C)O)n1 + CC(C)NCC(C(=O)N1CCN(c2ncnc3c2C(C)CC3O)CC1)c1ccc(Cl)cc1 .
Response: 7.78

Prompt: I would be grateful if you could share the reported viability, T/C for CCCS(=O)(=O)Nc1ccc(F)c(C(=O)c2c[nH]c3ncc(-c4ccc(Cl)cc4)cc23)c1F + CC(C)NCC(C(=O)N1CCN(c2ncnc3c2C(C)CC3O)CC1)c1ccc(Cl)cc1 .
Response: 14.6

Query molecule follows.
Prompt: I would be grateful if you could share the reported viability, T/C for Cn1ncc(Cl)c1-c1cc(C(=O)NC(CN)Cc2cccc(F)c2)sc1Cl (stereo not drawn) + CC(C)NCC(C(=O)N1CCN(c2ncnc3c2C(C)CC3O)CC1)c1ccc(Cl)cc1 .
Response: 0.81
